- SYSTEM NAME: T1, recombinant human PCSK9 protein, His-tagged (Immunogen A, hPCSK9-His) (human, UniProt Q8NBP7 31-692, limits assumed, biotin-labelled in the ELISA and blocking assays (Biotin labeling kit))
- T1 construct: also called human PCSK9-His; recombinant hPCSK9-His; not shown: His tag
- METHOD DESCRIPTION: blocking ELISA, biotin-hPCSK9-His on coated LDLR ECD-His; antibody 200 nM
MEASURED METRIC: OD450 nm (PCSK9 bound to LDLR) (OD450 nm)
Output spec: scalar in OD450 nm, unitless text.

IN: Return reported OD450 nm (PCSK9 bound to LDLR); argument: 76A1B11, chimeric anti-PCSK9 mAb purified from hybridoma (antibody, V domains shown, From Harbour H2L2 mice: human variable regions, rat constant regions) VH: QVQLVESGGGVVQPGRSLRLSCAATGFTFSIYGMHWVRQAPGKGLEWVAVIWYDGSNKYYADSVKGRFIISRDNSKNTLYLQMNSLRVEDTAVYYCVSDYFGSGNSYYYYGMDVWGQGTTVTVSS VL: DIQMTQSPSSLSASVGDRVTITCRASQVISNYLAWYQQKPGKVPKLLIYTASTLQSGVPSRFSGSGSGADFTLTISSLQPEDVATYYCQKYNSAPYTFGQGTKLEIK
OUT: 0.55
